Let's go through some Ki measurements on Adenosine receptor A1 (Homo sapiens) together.
Sequence (P30542 whole entry): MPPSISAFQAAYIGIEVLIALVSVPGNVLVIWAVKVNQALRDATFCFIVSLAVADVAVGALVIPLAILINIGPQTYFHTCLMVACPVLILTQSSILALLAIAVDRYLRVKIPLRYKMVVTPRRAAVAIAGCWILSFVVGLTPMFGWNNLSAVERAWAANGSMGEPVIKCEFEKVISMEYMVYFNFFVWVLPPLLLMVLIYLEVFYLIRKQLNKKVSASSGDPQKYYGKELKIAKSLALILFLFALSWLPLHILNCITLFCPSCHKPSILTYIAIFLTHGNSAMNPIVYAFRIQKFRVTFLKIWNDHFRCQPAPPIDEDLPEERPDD
Answer with a number only, understood to be in nM.

Reference set (5 entries):
[ask] What Ki appears in the records for this molecule with Adenosine receptor A1 (Homo sapiens)? CCOC(=O)c1cnc2c(cnn2CC(Cl)c2ccccc2)c1NCCc1ccc(Cl)cc1 (stereo unspecified)
[reply] 153

[ask] What Ki appears in the records for this molecule with Adenosine receptor A1 (Homo sapiens)? CCOC(=O)c1cnc2c(cnn2CC(Cl)c2ccccc2)c1NCCc1ccc(OC)cc1 (stereo unspecified)
[reply] 25

[ask] What Ki appears in the records for this molecule with Adenosine receptor A1 (Homo sapiens)? CCOC(=O)c1cnc2c(cnn2CC(Cl)c2ccccc2)c1NCCc1ccccc1F (stereo unspecified)
[reply] 29

[ask] What Ki appears in the records for this molecule with Adenosine receptor A1 (Homo sapiens)? COc1ccc(CCNc2c(C(=O)OC(C)C)cnc3c2cnn3CC(Cl)c2ccccc2)cc1 (stereo unspecified)
[reply] 17

[ask] What Ki appears in the records for this molecule with Adenosine receptor A1 (Homo sapiens)? COC(=O)c1cnc2c(cnn2CC(Cl)c2ccccc2)c1NCCc1ccc(OC)cc1 (stereo unspecified)
[reply] 94

***
[ask] What Ki appears in the records for this molecule with Adenosine receptor A1 (Homo sapiens)? CCOC(=O)c1cnc2c(cnn2CC(Cl)c2ccccc2)c1NCCc1ccc(F)cc1 (stereo unspecified)
[reply] 16
